Exercise: state measured half-life for each of the compounds provided.
- PROTOCOL DESCRIPTION: Pharmacokinetic study in rats after oral administration of A. japonica extract (LC-MS/MS of plasma)
- Assay type: in vivo
- EXPERIMENTAL CONDITIONS: male, Sprague-Dawley; rat plasma, oral A. japonica extract 0.93 g kg^−1, one compartment model
One number for each entry, in h.

COMPOUND STRING: COc1c(O)cc2c(c1O)[C@@H]1O[C@H](CO)[C@@H](O)[C@H](O)[C@H]1OC2=O
half-life / h: 3.87

// query Field request: half-life | item: O=C(O)c1cc(O)c(O)c(O)c1
// result 3.21

###

- PROTOCOL DESCRIPTION: Pharmacokinetic study in rats after oral administration of A. japonica extract (LC-MS/MS of plasma)
- Type: in vivo
- EXPERIMENTAL CONDITIONS: male, Sprague-Dawley; rat plasma, oral A. japonica extract 0.93 g kg^−1, one compartment model; read-out: MRT(0–t24 h)
- Method: The LC-MS/MS system consisted of an Agilent 1200 system coupled with a binary pump (G1312A), an autosampler (G13678), a vacuum degasser (G1322A), and an API 3200 triple quadrupole mass spectrometer with an ESI source. […] The flow rate was set at 300 μL min^−1 and the inject volume was 10 μL. The analytes were determined in negative mode and quantified by multiple-reaction monitoring (MRM) mode. […]
RECORDED METRIC: MRT (h)
Give bare numbers, in h.

COMPOUND STRING: O=C(O)c1cc(O)c(O)c(O)c1
UNIT INFO: h
MRT: 4.5

Moving on to another molecule below.
// query Field request: MRT | item: COc1c(O)cc2c(c1O)[C@@H]1O[C@H](CO)[C@@H](O)[C@H](O)[C@H]1OC2=O
// result 6.04

###

- PROTOCOL DESCRIPTION: Pharmacokinetic study in rats after oral administration of A. japonica extract (LC-MS/MS of plasma)
- Assay type: in vivo
- EXPERIMENTAL CONDITIONS: male, Sprague-Dawley; rat plasma, oral A. japonica extract 0.93 g kg^−1, one compartment model
RECORDED METRIC: AUC(0-inf) (ng·h/mL)
One number for each entry, in ng·h/mL.

COMPOUND: COc1c(O)cc2c(c1O)[C@@H]1O[C@H](CO)[C@@H](O)[C@H](O)[C@H]1OC2=O [Bergeninum, bergenin]
UNIT INFO: ng·h/mL
TEST RESULT: 1840

Moving on to another compound below.
// query Field request: AUC(0-inf) | item: O=C(O)c1cc(O)c(O)c(O)c1 [Gallic acid, gallic acid]
// result 200

###

- PROTOCOL DESCRIPTION: Pharmacokinetic study in rats after oral administration of A. japonica extract (LC-MS/MS of plasma)
- Format: in vivo
- EXPERIMENTAL CONDITIONS: male, Sprague-Dawley; rat plasma, oral A. japonica extract 0.93 g kg^−1, one compartment model, n = 10
Exercise: state measured Tmax for each of the molecules provided.
Your answer should be a number followed by the unit of measure.

COMPOUND STRING: O=C(O)c1cc(O)c(O)c(O)c1
TEST RESULT: 1.4 h

Moving on to another molecule below.
// query Field request: Tmax | item: COc1c(O)cc2c(c1O)[C@@H]1O[C@H](CO)[C@@H](O)[C@H](O)[C@H]1OC2=O
// result 0.86 h

###

- Assay type: physicochemical
- EXPERIMENTAL CONDITIONS: 3 cycles freezing at about −20°C and thawing at room temperature, rat plasma; LLOQ QC concentration; n = 6
Exercise: state measured Free-throw 3 times Accuracy for each of the molecules provided.
Answers are plain numbers, in %.

Check out these entries, answers already filled in.
MOLECULE: COc1c(O)cc2c(c1O)[C@@H]1O[C@H](CO)[C@@H](O)[C@H](O)[C@H]1OC2=O [Bergeninum, bergenin]
UNIT INFO: %
Free-throw 3 times Accuracy: 106
--
MOLECULE: O=C(O)c1cc(O)c(O)c(O)c1 [Gallic acid, gallic acid]
UNIT INFO: %
Free-throw 3 times Accuracy: 92.5
--
MOLECULE: C[C@@H]1O[C@@H](Oc2c(-c3ccc(O)c(O)c3)oc3cc(O)cc(O)c3c2=O)[C@H](O)[C@H](O)[C@H]1O [Quercetin-3-rhamnoside, quercetin-3-rhamnoside]
UNIT INFO: %
Free-throw 3 times Accuracy: 115
--
MOLECULE: O=C(O[C@@H]1Cc2c(O)cc(O)cc2O[C@@H]1c1ccc(O)c(O)c1)c1cc(O)c(O)c(O)c1 [Epicatechin gallate, epicatechin gallate]
UNIT INFO: %
Free-throw 3 times Accuracy: 109
--
MOLECULE: O=c1c(O[C@@H]2O[C@H](CO)[C@@H](O)[C@H](O)[C@H]2O)c(-c2ccc(O)c(O)c2)oc2cc(O)cc(O)c12 [Isoquercitrin, isoquercitrin]
UNIT INFO: %
Free-throw 3 times Accuracy: 105

// query Field request: Free-throw 3 times Accuracy | item: Oc1cc(O)c2c(c1)O[C@H](c1ccc(O)c(O)c1)[C@H](O)C2 [Epicatechin, epicatechin]
// result 105

###

Exercise: state measured AUC(0-t) for each of the compounds provided.
- PROTOCOL DESCRIPTION: Pharmacokinetic study in rats after oral administration of A. japonica extract (LC-MS/MS of plasma)
- Type: in vivo
- EXPERIMENTAL CONDITIONS: male, Sprague-Dawley, rat, plasma, po, 0.93 g/kg, oral A. japonica extract 0.93 g kg^−1, read-out: area under the curve (AUC0–24 h)
Give bare numbers, in ng·h/mL.

COMPOUND STRING: COc1c(O)cc2c(c1O)[C@@H]1O[C@H](CO)[C@@H](O)[C@H](O)[C@H]1OC2=O
AUC(0-t) [ng·h/mL]: 1740

Moving on to another compound below.
// query Field request: AUC(0-t) | item: O=C(O)c1cc(O)c(O)c(O)c1
// result 194

###

- PROTOCOL DESCRIPTION: Pharmacokinetic study in rats after oral administration of A. japonica extract (LC-MS/MS of plasma)
- Format: in vivo
- EXPERIMENTAL CONDITIONS: male, Sprague-Dawley, in vivo; rat plasma, oral A. japonica extract 0.93 g kg^−1, one compartment model
RECORDED METRIC: half-life (h)
Answers are plain numbers, in h.

// query Field request: half-life | item: C[C@@H]1O[C@@H](Oc2c(-c3ccc(O)c(O)c3)oc3cc(O)cc(O)c3c2=O)[C@H](O)[C@H](O)[C@H]1O [Quercetin-3-rhamnoside, quercetin-3-rhamnoside]
// result 2.59

###

- Assay type: physicochemical
- EXPERIMENTAL CONDITIONS: 3 cycles freezing at about −20°C and thawing at room temperature, rat plasma; high QC concentration; n = 6
Exercise: state measured Free-throw 3 times Accuracy for each of the compounds provided.
Your answer should be a number followed by the unit of measure.

Check out these entries, answers already filled in.
COMPOUND: C[C@@H]1O[C@@H](Oc2c(-c3ccc(O)c(O)c3)oc3cc(O)cc(O)c3c2=O)[C@H](O)[C@H](O)[C@H]1O [Quercetin-3-rhamnoside, quercetin-3-rhamnoside]
TEST RESULT: 85.0%

COMPOUND: O=C(O)c1cc(O)c(O)c(O)c1 [Gallic acid, gallic acid]
TEST RESULT: 101%

COMPOUND: O=C(O[C@@H]1Cc2c(O)cc(O)cc2O[C@@H]1c1ccc(O)c(O)c1)c1cc(O)c(O)c(O)c1 [Epicatechin gallate, epicatechin gallate]
TEST RESULT: 88.0%

COMPOUND: COc1c(O)cc2c(c1O)[C@@H]1O[C@H](CO)[C@@H](O)[C@H](O)[C@H]1OC2=O [Bergeninum, bergenin]
TEST RESULT: 87.3%

COMPOUND: O=c1c(O[C@@H]2O[C@H](CO)[C@@H](O)[C@H](O)[C@H]2O)c(-c2ccc(O)c(O)c2)oc2cc(O)cc(O)c12 [Isoquercitrin, isoquercitrin]
TEST RESULT: 91.0%

// query Field request: Free-throw 3 times Accuracy | item: Oc1cc(O)c2c(c1)O[C@H](c1ccc(O)c(O)c1)[C@H](O)C2 [Epicatechin, epicatechin]
// result 99.4%
